# Tested on: HeLa Kyoto;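 note: synchronized HeLa Kyoto cells, proteins quantified by TMT10plex mass spectrometry, three biological replicates, mitosis taken 0.5 h after nocodazole release, G1/S directly after double thymidine block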
# protocol_text: thermal stability score vs G1/S (z-score of summed log2 fold changes over temperatures); higher = more thermally stable than in G1/S
# study_conditions: cell cycle stage: early G1 (4.5 h after nocodazole release)
Criterion: thermal stability score meeting or surpassing -0.6. Met: 1.0. Not met: 0.0.

MEPLAAYPLKCSGPRAKVFAVLLSIVLCTVTLFLLQLKFLKPKINSFYAFEVKDAKGRTVSLEKYKGKVSLVVNVASDCQLTDRNYLGLKELHKEFGPSHFSVLAFPCNQFGESEPRPSKEVESFARKNYGVTFPIFHKIKILGSEGEPAFRFLVDSSKKEPRWNFWKYLVNPEGQVVKFWKPEEPIEVIRPDIAALVRQVIIKKKEDL [GPX8] = 1.0
MDPETRGQEIIKVTPLQQMLASCTGAILTSVIVTPLDVVKIRLQAQNNPLPKGKCFVYSNGLMDHLCVCEEGGNKLWYKKPGNFQGTLDAFFKIIRNEGIKSLWSGLPPTLVMAVPATVIYFTCYDQLSALLRSKLGENETCIPIVAGIVARFGAVTVISPLELIRTKMQSKKFSYVELHRFVSKKVSEDGWISLWRGWAPTVLRDVPFSAMYWYNYEILKKWLCEKSGLYEPTFMINFTSGALSGSFAAVATLPFDVVKTQKQTQLWTYESHKISMPLHMSTWIIMKNIVAKNGFSGLFSGLIPRLIKIAPACAIMISTYEFGKAFFQKQNVRRQQY [SLC25A40] = 0.0

Asked: Given the entry MAATLLAARGAGPAPAWGPEAFTPDWESREVSTGTTIMAVQFDGGVVLGADSRTTTGSYIANRVTDKLTPIHDRIFCCRSGSAADTQAVADAVTYQLGFHSIELNEPPLVHTAASLFKEMCYRYREDLMAGIIIAGWDPQEGGQVYSVPMGGMMVRQSFAIGGSGSSYIYGYVDATYREGMTKEECLQFTANALALAMERDGSSGGVIRLAAIAESGVERQVLLGDQIPKFAVATLPPA [PSMB6] , answer whether its thermal stability score meets or surpasses -0.6.
Given back: 0.0
